Molecular target: β1-adrenoceptors (Rattus norvegicus, UniProt P18090)
Construct: Experiments were done using male Wistar rats weighing between 300 and 400 g, anesthetized with sodium pentobarbital; from tissue; host or cells: whole animal (anesthetized male Wistar rats), cardiac response in vivo
Sequence (P18090 whole entry): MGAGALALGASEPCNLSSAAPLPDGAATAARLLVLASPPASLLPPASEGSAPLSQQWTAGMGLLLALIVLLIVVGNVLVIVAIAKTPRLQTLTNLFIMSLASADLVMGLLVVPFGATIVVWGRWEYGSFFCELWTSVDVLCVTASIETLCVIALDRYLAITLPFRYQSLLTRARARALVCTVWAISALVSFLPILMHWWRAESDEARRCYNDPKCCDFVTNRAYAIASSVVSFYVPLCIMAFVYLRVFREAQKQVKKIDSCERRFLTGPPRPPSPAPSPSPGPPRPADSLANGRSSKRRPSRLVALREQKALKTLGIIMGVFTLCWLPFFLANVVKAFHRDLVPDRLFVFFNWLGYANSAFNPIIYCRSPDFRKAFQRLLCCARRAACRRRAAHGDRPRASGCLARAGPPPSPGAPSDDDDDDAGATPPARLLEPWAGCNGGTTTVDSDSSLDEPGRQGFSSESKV
Test: β-adrenoceptor blocking activity: inhibition of the isoproterenol-induced increase in heart rate in anesthetized rats
Type: in vivo, male Wistar rats
Details: iv, 0.05 h, read-out: β-adrenoceptor blocking action ID50
Method: Experiments were done using male Wistar rats weighing between 300 and 400 g, anesthetized with sodium pentobarbital (60 mg/kg i.p.). The blood pressure was directly measured by connecting a cannula inserted in the femoral artery to a pressure transducer and the heart rate was calculated from the pulse waves of the blood pressure tracings. Each value shown here was obtained from three animals. […]
Classify: satisfied when ED50 is strictly less than 0.03 mg/kg; not satisfied when ED50 is not.

Lookup: Identify whether the compound C#Cc1ccccc1OCC(O)CNC(C)(C)COc1ccc(NN)nn1 (centres unmarked) [R] records ED50 below 0.03 mg/kg.
Found: satisfied

Lookup: Identify whether the compound Cc1ccc(C#N)c(OCC(O)CNC(C)(C)COc2ccc(NN)nn2)c1 (centres unmarked) [K] records ED50 below 0.03 mg/kg.
Found: not satisfied

Lookup: Identify whether the compound Cc1ccccc1OCC(O)CNC(C)(C)COc1ccc(NN)nn1 (centres unmarked) [C] records ED50 below 0.03 mg/kg.
Found: satisfied

Note: attention shifts to another entry.
Lookup: Identify whether the compound Cc1cccc(OCC(O)CNC(C)(C)COc2ccc(NN)nn2)c1Cl (centres unmarked) [F] records ED50 below 0.03 mg/kg.
Found: not satisfied

###

target: β1-adrenoceptors (Rattus norvegicus); construct: Experiments were done using male Wistar rats weighing between 300 and 400 g, anesthetized with sodium pentobarbital; from tissue; host or cells: whole animal (anesthetized male Wistar rats), cardiac response in vivo; test: β-adrenoceptor blocking activity: inhibition of the isoproterenol-induced increase in heart rate in anesthetized rats; type: in vivo, male Wistar rats; conditions: iv, 0.05 h, read-out: β-adrenoceptor blocking action ID50
Classify: 1 when ED50 is strictly less than 0.1 mg/kg; -1 when ED50 is not.

Lookup: Identify whether the compound CC(C)(COc1ccc(NN)nn1)NCC(O)COc1ccccc1C#N (centres unmarked) [I] records ED50 below 0.1 mg/kg.
Found: 1

Others:
Lookup: Identify whether the compound CC(C)(COc1ccc(NN)nn1)NCC(O)COc1cc(Cl)ccc1C#N (centres unmarked) [J] records ED50 below 0.1 mg/kg.
Found: -1

Lookup: Identify whether the compound CC(C)(COc1ccc(NN)nn1)NCC(O)COc1ccccc1Cl (centres unmarked) [B] records ED50 below 0.1 mg/kg.
Found: 1

Lookup: Identify whether the compound CC(C)=NNc1ccc(OCC(C)(C)NCC(O)COc2cc(C)ccc2Cl)nn1 (centres unmarked) [G] records ED50 below 0.1 mg/kg.
Found: -1

Lookup: Identify whether the compound CCc1ccccc1OCC(O)CNC(C)(C)COc1ccc(NN)nn1 (centres unmarked) [D] records ED50 below 0.1 mg/kg.
Found: -1

###

Assignment: determine reported ED50 for the given molecules.
target: β1-adrenoceptors (Rattus norvegicus); construct: Experiments were done using male Wistar rats weighing between 300 and 400 g, anesthetized with sodium pentobarbital; from tissue; host or cells: whole animal (anesthetized male Wistar rats), cardiac response in vivo; test: β-adrenoceptor blocking activity: inhibition of the isoproterenol-induced increase in heart rate in anesthetized rats; format: in vivo, male Wistar rats; conditions: iv, 0.05 h, read-out: β-adrenoceptor blocking action ID50
One number for each entry, in mg/kg.

# annotated cases, reported ED50 shown
For reference, reported ED50 for CCCc1ccccc1OCC(O)CNC(C)(C)COc1ccc(NN)nn1 (stereo not drawn) stands at 0.2

For reference, reported ED50 for C=CCOc1ccccc1OCC(O)CNC(C)(C)COc1ccc(NN)nn1 (stereo not drawn) stands at 0.1

Others:
For reference, reported ED50 for CCOCCc1ccccc1OCC(O)CNC(C)(C)COc1ccc(NN)nn1 (stereo not drawn) stands at 0.16
